Tested on: DU-145 prostate
protocol: NCI tumour cell line growth inhibition, 48 h; in the data active = GI50 below about 0.43 µM; inactive = the rest
Labels: 1 for active, -1 for inactive

compound="CC12CCC(O)CC1=CCC1C2CCC2(C)C(c3cccnc3)=CCC12 (centres undefined)" system_name="DU-145 prostate" class_label=-1
compound=COc1ccc2[nH]c(O)c(/C=c3/ccc4c(c3)N=C(c3ccc(F)cc3)N=4)c2c1 system_name="DU-145 prostate" class_label=-1
compound="CCN1C(=O)N(CC)C2C1NN=c1s/c(=C\\c3cccc([N+](=O)[O-])c3)c(=O)n12 (centres undefined)" system_name="DU-145 prostate" class_label=1
compound="COc1ccc(C(=O)OC2C(OC3C(O)COC(O[C@H]4C[C@H]5[C@@H]6CC=C7C[C@@H](O)CC[C@]7(C)[C@H]6CC[C@]5(C)[C@H]4[C@H](C)C(=O)CCC(C)C)C3OC(C)=O)OCC(O)C2O)cc1 (some centres undefined)" system_name="DU-145 prostate" class_label=1

---

Recorded TGI, one value per entry.
System: NCI-H522 lung
protocol: NCI tumour cell line growth inhibition, 48 h
assay.readout: TGI (µM)

compound=CN(C)c1ccc(C(=C2C=CC(=[N+](C)C)C=C2)c2ccccc2Cl)cc1 assay_readout=TGI quantity_unit=µM sign_qualifier== recorded_measurement=0.925
compound=Nc1nc(-c2cc(-c3cccc4ccccc34)nc(N)n2)cc(-c2cccc3ccccc23)n1 assay_readout=TGI quantity_unit=µM sign_qualifier=> recorded_measurement=100
compound=Cc1ccc(C)c2c(N=Nc3ccccc3[N+](=O)[O-])c(O)[nH]c12 assay_readout=TGI quantity_unit=µM sign_qualifier=> recorded_measurement=100
compound=COc1ccc2c(c1)CCN1C3=C(CCC3)C(=O)C[C@@H]21 assay_readout=TGI quantity_unit=µM sign_qualifier=> recorded_measurement=100
compound=Cc1nnc([C@@]2(C)CC[C@H]3[C@@H](CCC4=CC(=O)CC[C@@]43C)[C@@H]2CC#N)o1 assay_readout=TGI quantity_unit=µM sign_qualifier=> recorded_measurement=100
compound=C=CCn1c(-c2ccc(Cl)cc2Cl)csc1=Nc1c(C)n(C)n(-c2ccccc2)c1=O assay_readout=TGI quantity_unit=µM sign_qualifier== recorded_measurement=29.6
compound=COc1ccc(-c2cc(-c3ccccc3)nc3c2CC(=O)Nc2ccccc2-3)cc1OC assay_readout=TGI quantity_unit=µM sign_qualifier=> recorded_measurement=100
compound=O=c1c2c3c(sc2nc2n1N=C(c1ccc([N+](=O)[O-])cc1)CS2)CCCC3 assay_readout=TGI quantity_unit=µM sign_qualifier=> recorded_measurement=100
compound=CC(C)(C)OC(=O)NCCCCCCCCCCn1c2c(c3ccccc3c1=O)C(=O)c1ccccc1-2 assay_readout=TGI quantity_unit=µM sign_qualifier=> recorded_measurement=100
compound="O=C(CC1C(=O)Nc2ccccc2S1(=O)=O)Nc1cccc(Cl)c1 (stereo unspecified)" assay_readout=TGI quantity_unit=µM sign_qualifier== recorded_measurement=31.7
compound=Nc1ccc(OCCCc2c(-c3ccccc3)nc(N)[nH]c2=O)cc1 assay_readout=TGI quantity_unit=µM sign_qualifier=> recorded_measurement=100
compound=CCN(Cc1cccc(F)c1F)c1ccc(CO)c(Cl)c1 assay_readout=TGI quantity_unit=µM sign_qualifier== recorded_measurement=31.2
compound=Cc1nc2ccccc2c(=O)n1/N=C/c1ccc(N(C)C)cc1 assay_readout=TGI quantity_unit=µM sign_qualifier=> recorded_measurement=100
compound="O=C1CSC(C(N=Nc2ccc(Cl)cc2)c2nc3ccccc3[nH]2)=N1 (stereo unspecified)" assay_readout=TGI quantity_unit=µM sign_qualifier== recorded_measurement=71.1
compound=CS/C=C\C(=O)O[C@H]1C[C@@H]2[C@@H](O)c3occ(C)c3C[C@]2(C)[C@@H](C)C1 assay_readout=TGI quantity_unit=µM sign_qualifier== recorded_measurement=71.7
compound=N=C(N)SCc1ccc([N+](=O)[O-])cc1[N+](=O)[O-] assay_readout=TGI quantity_unit=µM sign_qualifier== recorded_measurement=3.12
compound=COc1ccc(/C(=N/O)c2cc(OC)c(OC)c(OC)c2)c(OC)c1N assay_readout=TGI quantity_unit=µM sign_qualifier=> recorded_measurement=100
compound=CN(C)/C=C/c1c2c(nc3ccccc13)C(=O)c1ccccc1C2=O assay_readout=TGI quantity_unit=µM sign_qualifier== recorded_measurement=4.61
compound="CC(OC(=O)N(N(CCCl)S(C)(=O)=O)S(C)(=O)=O)c1ccc([N+](=O)[O-])cc1 (stereo unspecified)" assay_readout=TGI quantity_unit=µM sign_qualifier=> recorded_measurement=100
compound="Clc1ccc(C2=NOC3C4CCC(C4)C23)cc1 (stereo unspecified)" assay_readout=TGI quantity_unit=µM sign_qualifier=> recorded_measurement=100
compound=Cc1cc2c(cc1C)[n+](Cc1ccc3ccccc3n1)cn2Cc1ccc2ccccc2n1 assay_readout=TGI quantity_unit=µM sign_qualifier== recorded_measurement=2.47

# credit: PubChem BioAssay (NCI)
